Numbers sourced from ChEMBL document CHEMBL4251548.

System: Candida albicans
Assay: Inhibition of hypal growth in Candida albicans SC5314 assessed as length of germ tube at 200 uM after 9 hrs by differential interference contrast microscopic analysis (reference value: 223.9 +/- 24.5 micrometer)
Assay type: functional
Examples of compounds with documented Activity follow.
Record the value in um, omitting the unit from your answer.

The following compounds have reported results that may help.
>>> df
               smiles_record  experimental_value
0       CCCCCCCCC/C=C\C(=O)O                64.2
1      CCCCCCn1cc(C(=O)O)nn1               223.5
2  CCCCCCCCCCn1cc(C(=O)O)nn1                53.3

Below: the item to evaluate.
Write down the reported Activity (system: Candida albicans) of `CCCCCCCCn1cc(C(=O)O)nn1`
74.2

###

Tested on: Candida albicans
Test: Inhibition of hypal growth in Candida albicans SC5314 assessed as length of germ tube at 200 uM after 6 hrs by differential interference contrast microscopic analysis (reference value: 235.2 +/- 40.4 micrometer)
Format: functional
ENDPOINT NAME: Activity (um)
Record the value in um, omitting the unit from your answer.

The following compounds have reported results that may help.
>>> df
               smiles_record  units_of_measure  experimental_value
0  CCCCCCCCCCn1cc(C(=O)O)nn1                um                  45
1    CCCCCCCCn1cc(C(=O)O)nn1                um                54.6

Write down the reported Activity (system: Candida albicans) of `CCCCCCCCC/C=C\C(=O)O`
63.5

Write down the reported Activity (system: Candida albicans) of `CCCCCCn1cc(C(=O)O)nn1`
207.8

###

System: Candida albicans
Assay: Inhibition of hypal growth in Candida albicans SC5314 assessed as length of germ tube at 200 uM measured immediately by differential interference contrast microscopic analysis (reference value: 70.3 +/- 12.3 micrometer)
Assay type: functional
Examples of molecules with documented Activity follow.
Answer with the figure and its unit, nothing else.

The following molecules have reported results that may help.
               smiles_record  experimental_value
0  CCCCCCCCCCn1cc(C(=O)O)nn1             71.8 um
1       CCCCCCCCC/C=C\C(=O)O             65.3 um
2      CCCCCCn1cc(C(=O)O)nn1             66.5 um

Below: the item to evaluate.
Write down the reported Activity (system: Candida albicans) of `CCCCCCCCn1cc(C(=O)O)nn1`
73.4 um
